Data origin, for the record: patent US20110190280A1

- Tested on: A375P tumor cells
- measurement.protocol: Cell growth inhibition assay (CellTiter-Glo), A375P
- condition: Homo sapiens, 72 h, read-out: Activity in A375P Tumor Cells
pIC50: −log10 of the molar value. Structures can show the parent of a compound that is named as a salt.
reported.metric: pIC50

Please review the entries below; each comes with its answer.
>>> value_measured("CCNc1nc(-c2cc(OC)cc(OC)c2)c(-c2ccnc(Nc3ccc(OC4CCN(CCS(C)(=O)=O)CC4)c(F)c3)n2)o1 [Example 82]")
"< 5.30"
>>> value_measured("CCNc1nc(-c2cc(OC)cc(OC)c2)c(-c2ccnc(Nc3ccc(N4CCOCC4)c(F)c3)n2)s1 [Example 7]")
"5.30 to 6.30"
>>> value_measured("COc1cc(OC)cc(-c2nc(NC3CC3)sc2-c2ccnc(Nc3ccc(O[C@@H]4CCN(CCF)C4)nc3)n2)c1 [Example 19]")
"> 6.30"
>>> value_measured("CCc1nc(-c2cc(O)cc(OC)c2)c(-c2ccnc(Nc3ccc(OC4CCN(CCS(C)(=O)=O)CC4)c(F)c3)n2)s1 [Example 74, trifluoroacetic acid salt]")
"> 6.30"
>>> value_measured("CCNc1nc(-c2cc(OC)ccc2F)c(-c2ccnc(Nc3ccc(N4CCN(C)CC4)c(F)c3)n2)s1 [Example 56]")
"> 6.30"
>>> value_measured("CCNc1nc(-c2cc(OC)cc(OC)c2)c(-c2ccnc(Nc3ccc(N4CCOCC4)nc3)n2)o1 [Example 120]")
"5.30 to 6.30"

**Q:** Item CCNc1nc(-c2cc(OC)cc(OC)c2)c(-c2ccnc(Nc3ccc(N4CCN(CCF)CC4)c(F)c3)n2)o1 [Example 117] : provide pIC50
**A:** 5.30 to 6.30

**Q:** Item COc1cc(OC)cc(-c2nc(NC3CC3)sc2-c2ccnc(Nc3ccc4c(c3)CN(C)CC4)n2)c1 [Example 15] : provide pIC50
**A:** 5.30 to 6.30

**Q:** Item COc1cc(OC)cc(-c2nc(NC3CC3)sc2-c2ccnc(Nc3ccc(OCCN(C)C)c(Cl)c3)n2)c1 [Example 105] : provide pIC50
**A:** > 6.30

###

// values below are reported pIC50
- measured.on: ErbB2 (Homo sapiens, UniProt P04626)
- Sequence (P04626 23-1255): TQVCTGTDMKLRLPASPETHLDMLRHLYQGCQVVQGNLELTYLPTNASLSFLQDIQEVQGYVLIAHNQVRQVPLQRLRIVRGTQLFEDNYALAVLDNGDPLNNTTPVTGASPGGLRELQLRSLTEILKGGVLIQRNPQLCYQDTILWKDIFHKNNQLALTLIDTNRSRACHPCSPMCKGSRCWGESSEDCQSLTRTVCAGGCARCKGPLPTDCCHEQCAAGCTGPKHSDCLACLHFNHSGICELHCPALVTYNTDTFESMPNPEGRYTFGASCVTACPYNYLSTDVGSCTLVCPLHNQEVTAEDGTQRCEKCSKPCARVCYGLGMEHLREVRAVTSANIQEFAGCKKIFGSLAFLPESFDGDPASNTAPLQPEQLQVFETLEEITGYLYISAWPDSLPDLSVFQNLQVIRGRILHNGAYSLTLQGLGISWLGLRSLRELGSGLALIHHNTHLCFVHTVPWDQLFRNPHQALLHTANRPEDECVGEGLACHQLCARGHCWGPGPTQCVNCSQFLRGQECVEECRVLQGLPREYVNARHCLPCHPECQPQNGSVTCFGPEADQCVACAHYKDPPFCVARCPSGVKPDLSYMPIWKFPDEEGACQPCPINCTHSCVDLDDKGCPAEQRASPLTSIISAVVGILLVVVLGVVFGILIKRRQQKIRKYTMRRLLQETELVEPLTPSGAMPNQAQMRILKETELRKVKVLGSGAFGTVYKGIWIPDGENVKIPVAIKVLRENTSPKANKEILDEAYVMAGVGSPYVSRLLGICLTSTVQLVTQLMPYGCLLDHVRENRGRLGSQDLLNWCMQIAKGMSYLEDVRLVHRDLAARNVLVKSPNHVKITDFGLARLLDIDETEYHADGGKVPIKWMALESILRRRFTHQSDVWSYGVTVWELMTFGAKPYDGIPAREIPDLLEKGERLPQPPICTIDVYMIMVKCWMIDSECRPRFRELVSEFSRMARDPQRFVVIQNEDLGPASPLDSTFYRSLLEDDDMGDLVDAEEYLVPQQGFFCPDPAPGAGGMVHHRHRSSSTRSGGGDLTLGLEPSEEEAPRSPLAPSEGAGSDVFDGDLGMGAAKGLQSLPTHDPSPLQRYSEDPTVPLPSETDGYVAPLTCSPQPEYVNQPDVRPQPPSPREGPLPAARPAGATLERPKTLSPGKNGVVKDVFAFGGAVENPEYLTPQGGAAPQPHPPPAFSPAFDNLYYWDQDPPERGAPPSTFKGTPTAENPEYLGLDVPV
- measurement.protocol: ErbB2 kinase autophosphorylation assay (peptide phosphorylation, HTRF)
- Assay type: biochemical
- condition: 10 nM ErbB2, HTRF; class by pIC50
pIC50: −log10 of the molar value. Counter-ions that a name gives are not always drawn.

Please review the entries below; each comes with its answer.
>>> value_measured("CCNc1nc(-c2cc(C)cc(OC)c2)c(-c2ccnc(Nc3ccc(N4CCN(C(=O)COC)CC4)nc3)n2)s1 [Example 37]")
"< 6.00"
>>> value_measured("CCNc1nc(-c2cc(C)cc(OC)c2)c(-c2ccnc(Nc3ccc(N4CCOCC4)nc3)n2)s1 [Example 35]")
"< 6.00"
>>> value_measured("CCNc1nc(-c2cc(C)cc(OC)c2)c(-c2ccnc(Nc3ccc(N4CCN(CCF)CC4)c(F)c3)n2)s1 [Example 29]")
"< 6.00"
>>> value_measured("Fc1cc(Nc2nccc(-c3sc(N4CCCC4)nc3-c3cccc(Cl)c3)n2)ccc1OCCN1CCCC1 [Example 103]")
"> 7.00"
>>> value_measured("COCCNc1nc(-c2cccc(OC)c2)c(-c2ccnc(Nc3ccc(N4CCOCC4)c(Cl)c3)n2)s1 [Example 43, hydrochloride]")
"> 7.00"

**Q:** Item CCNc1nc(-c2cc(C)cc(OC)c2)c(-c2ccnc(Nc3ccc(N4CCN(C(C)=O)CC4)nc3)n2)s1 [Example 36] : provide pIC50
**A:** < 6.00

**Q:** Item COc1cc(C)cc(-c2nc(C(C)C)sc2-c2ccnc(Nc3ccc(N4CCOCC4)nc3)n2)c1 [Example 61] : provide pIC50
**A:** < 6.00

###

- Tested on: A375P tumor cells
- measurement.protocol: Cell growth inhibition assay (CellTiter-Glo), A375P
- condition: Homo sapiens, 72 h, read-out: Activity in A375P Tumor Cells
pIC50: −log10 of the molar value.
// values below are reported pIC50

Please review the entries below; each comes with its answer.
>>> value_measured("CCNc1nc(-c2cc(C)cc(OC)c2)c(-c2ccnc(Nc3ccc(N4CCN(C)CC4)c(OC)c3)n2)s1 [Example 33]")
"> 6.30"
>>> value_measured("COc1cc(OC)cc(-c2nc(NC3CC3)sc2-c2ccnc(Nc3ccc(OC4CCN(CCS(C)(=O)=O)CC4)c(F)c3)n2)c1 [Example 17]")
"> 6.30"
>>> value_measured("Fc1cc(Nc2nccc(-c3sc(N4CCCC4)nc3-c3cccc(Cl)c3)n2)ccc1OCCN1CCCC1 [Example 103]")
"5.30 to 6.30"
>>> value_measured("CCNc1nc(-c2cccc(N(C)C)c2)c(-c2ccnc(Nc3ccc(N4CCOCC4)nc3)n2)s1 [Example 47]")
"> 6.30"

Let us examine a further case.
**Q:** Item CCNc1nc(-c2ccc3c(c2)OCO3)c(-c2ccnc(Nc3ccc(N4CCN(C(C)=O)CC4)nc3)n2)s1 [Example 53] : provide pIC50
**A:** > 6.30

###

- Tested on: A375P tumor cells
- measurement.protocol: Cell growth inhibition assay (CellTiter-Glo), A375P;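 also: total ATP luminescence used as proxy for cell number, serial threefold compound dilutions at 0.2% DMSO, growth inhibition expressed versus DMSO vehicle-treated wells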
- condition: Homo sapiens, 72 h, read-out: Activity in A375P Tumor Cells
// values below are reported IC50

>>> value_measured("CCNc1nc(-c2cc(C)cc(OC)c2)c(-c2ccnc(Nc3ccc(N4CCN(CCF)CC4)c(F)c3)n2)s1")
"< 500 nM"

**Q:** Item `CCNc1nc(-c2cc(OC)cc(OC)c2)c(-c2ccnc(Nc3ccc(OC4CCN(CCF)CC4)c(OC)c3)n2)o1` : provide IC50
**A:** 500 to 5000 nM

**Q:** Item `CCNc1nc(-c2cc(OC)cc(OC)c2)c(-c2ccnc(Nc3ccc(N4CCN(CCF)CC4)nc3)n2)o1` : provide IC50
**A:** 500 to 5000 nM

**Q:** Item `CCNc1nc(-c2cc(OC)cc(OC)c2)c(-c2ccnc(Nc3ccc(OCCN(C)C)c(C)c3)n2)s1` : provide IC50
**A:** < 500 nM

**Q:** Item `CCNc1nc(-c2cc(OC)cc(OC)c2)c(-c2ccnc(Nc3ccc(N4CCN(S(C)(=O)=O)CC4)nc3)n2)s1` : provide IC50
**A:** < 500 nM
